The entries below come with measured pIC50 values attached.
- tested_on: Human NPY5 receptor (Homo sapiens)
- experiment_notes: Human NPY5 receptor binding assay ([125I]PYY, membrane protein)
- measurement_setup: [125I]PYY binding, read-out: hNPY5 IC50
Remember, pIC50 is on a log scale: it is -log10 of the molar concentration.

Some solved cases for reference:
O=C(CN1CCOCC1)Nc1ccc(C(=O)c2ccccc2)cc1 [Compound 6] : 6.10
O=C(CN1CCC(O)(CCCc2ccccc2)CC1)Nc1ccc(C2CCCCC2)cc1 [Compound 61] : 5.02
CC1(C)CC(C(N)=O)C(C)(C)N1CC(=O)Nc1ccc(C2CCCCC2)cc1 (centres unmarked) [Compound 114] : 5.62

IN: Supply pIC50 value. Item: O=C(CN1CCC[C@@H]1C(O)(c1ccccc1)c1ccccc1)Nc1ccc(C2CCCCC2)cc1 [Compound 83]
OUT: 6.04

IN: Read the entry CCC(=O)C1(c2ccccc2)CCN(CC(=O)Nc2ccc(C(=O)c3ccccc3)cc2)CC1 [Compound 69] and write its reported pIC50.
OUT: 8.52

====

The reader will find reported pIC50 values listed item by item below.
- tested_on: Human NPY5 receptor (Homo sapiens)
- Sequence (Q15761 1-445): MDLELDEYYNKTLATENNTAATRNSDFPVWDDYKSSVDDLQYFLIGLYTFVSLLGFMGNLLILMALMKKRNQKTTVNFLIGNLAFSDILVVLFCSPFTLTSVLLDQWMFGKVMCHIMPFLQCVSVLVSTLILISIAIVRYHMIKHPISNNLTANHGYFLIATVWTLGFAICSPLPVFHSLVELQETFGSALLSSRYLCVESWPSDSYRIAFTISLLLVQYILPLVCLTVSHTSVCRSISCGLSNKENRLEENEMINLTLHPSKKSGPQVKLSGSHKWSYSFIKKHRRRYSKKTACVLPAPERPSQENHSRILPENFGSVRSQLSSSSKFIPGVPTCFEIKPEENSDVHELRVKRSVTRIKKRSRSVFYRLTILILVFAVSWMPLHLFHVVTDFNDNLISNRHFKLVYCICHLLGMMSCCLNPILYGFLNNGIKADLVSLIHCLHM
- experiment_notes: Human NPY5 receptor binding assay ([125I]PYY, membrane protein)
- measurement_setup: [125I]PYY binding, read-out: hNPY5 IC50
Schema: pIC50 number; meaning minus log10 of the concentration expressed in molar units.

Solved entries:
O=C(CN1CCC[C@H]1CO)Nc1ccc(C2CCCCC2)cc1 [Compound 84] : 6.03
O=C(CNCc1ccccc1)Nc1ccc(C2CCCCC2)cc1 [Compound 11] : 5.55
O=C(CN1CCC[C@H]1C(=O)OCc1ccccc1)Nc1ccc(C2CCCCC2)cc1 [Compound 95] : 5.80

IN: Give the reported value of pIC50 for this record: O=C(CN1CCC[C@H]1CO)Nc1ccc(C(=O)c2ccccc2)cc1 [Compound 85]
OUT: 5.55

IN: Give the measured pIC50 for CC(C)(C)OC(=O)NC1CCN(CC(=O)Nc2ccc(C3CCCCC3)cc2)C1 (stereo not shown) [Compound 195]
OUT: 7.59

====

# IC50 listing for each entry below
- tested_on: Human NPY5 receptor (Homo sapiens)
- experiment_notes: Human NPY5 receptor binding assay ([125I]PYY, membrane protein)
- measurement_setup: [125I]PYY binding, read-out: hNPY5 IC50
Give just the number in nM; leave the unit off.

Solved entries (count: 3):
COC(=O)[C@@H]1CCCN1CC(=O)Nc1ccc(C2CCCCC2)cc1 : 1200
CN(C(=O)OC(C)(C)C)C1CCN(CC(=O)Nc2ccc(C3CCCCC3)cc2)C1 (stereo not drawn) : 170
N#CCNCC(=O)Nc1ccc(C(=O)c2ccccc2)cc1 : 1300

IN: Could you please provide reported IC50 for CN(C)C1(C(N)=O)CCN(CC(=O)Nc2ccc(C3CCCCC3)cc2)CC1 [Compound 36] ? Thanks!
OUT: 710

IN: Return the recorded IC50 value; entry: CCNC1(C(N)=O)CCN(CC(=O)Nc2ccc(C(=O)c3ccccc3)cc2)CC1
OUT: 20

====

A collection of molecules and their measured pIC50
- tested_on: Human NPY5 receptor (Homo sapiens)
- experiment_notes: Human NPY5 receptor binding assay ([125I]PYY, membrane protein)
- measurement_setup: [125I]PYY binding, read-out: hNPY5 IC50
Units for pIC50: none; it is -log10 of a concentration expressed in mol/L.

Here are 5 molecules together with their reported answers.
C=CCC(NCC(=O)Nc1ccc(C2CCCCC2)cc1)C(=O)O (stereo not shown) [Compound 220] : 6.27
CN(C)C1(C(N)=O)CCN(CC(=O)Nc2ccc(C3CCCCC3)cc2)CC1 [Compound 65] : 6.16
O=C(CN(CCO)c1ccccc1)Nc1ccc(C2CCCCC2)cc1 [Compound 14] : 5.74
CNC1(C(N)=O)CCN(CC(=O)Nc2ccc(C3CCCCC3)cc2)CC1 [Compound 30] : 7.22
O=C(CN1CCC[C@@H]1CO)Nc1ccc(C2CCCCC2)cc1 [Compound 113] : 6.15

IN: Retrieve pIC50 measured for O=C(CN1CCC(N2CCCC2)CC1)Nc1ccc(C2CCCCC2)cc1 [Compound 29] and print it.
OUT: 5.36

IN: Identify the reported pIC50 for the following entry. CCCC(CO)NCC(=O)Nc1ccc(C2CCCCC2)cc1 (stereo not shown) [Compound 216]
OUT: 6.35

IN: Please look at this molecule and report its pIC50: COC[C@@H]1CCCN1CC(=O)Nc1ccc(C(=O)c2ccccc2)cc1 [Compound 104]
OUT: 6.31

IN: Identify measured pIC50 associated with NC(=O)C1(Nc2ccccc2)CCN(CC(=O)Nc2ccc(C3CCCCC3)cc2)CC1 [Compound 31]
OUT: 5.92

IN: Tell me its pIC50 given O=C(CN1CCN(c2ccccc2Cl)CC1)Nc1ccc(C2CCCCC2)cc1 [Compound 3] as the entry.
OUT: 6.72

IN: Consider the molecule CCN(CC)CC(=O)Nc1ccc(C(=O)c2ccccc2)cc1 [Compound 7] . State its measured pIC50.
OUT: 5.80
